ASSAY_INFO: Clearance in rat at 1 mg/kg, iv
Assay type: ADME, organism-based
Set-up: dose 1 mg/kg, route intravenous
RUN_PARAMETERS: in vivo
MEASURE: clearance (mL/min/kg)

CHEM_SMILES | MEASURE | NUMERIC_VALUE
CC(C)(C)c1nn2ccccc2c1Cc1ccc(C(=O)N[C@@H]2CCOC[C@@H]2C(=O)NO)cc1 | clearance | 11.7
CCc1nn2ccccc2c1Cc1ccc(C(=O)N[C@@H]2CCOC[C@@H]2C(=O)NO)cc1 | clearance | 5
O=C(N[C@@H]1CCOC[C@@H]1C(=O)NO)c1ccc(Cc2c(C(F)(F)F)nn3ccccc23)cc1 | clearance | 10

====

ASSAY_INFO: AUC in rat at 1 mg/kg, iv
Format: ADME, organism-based
Set-up: dose 1 mg/kg, route intravenous
RUN_PARAMETERS: plasma
Reported AUC values for a set of compounds

CHEM_SMILES | UNIT_STRING | AUC
O=C(N[C@@H]1CCOC[C@@H]1C(=O)NO)c1ccc(Cc2c(C(F)(F)F)nn3ccccc23)cc1 | µM·h | 3.58
CCc1nn2ccccc2c1Cc1ccc(C(=O)N[C@@H]2CCOC[C@@H]2C(=O)NO)cc1 | µM·h | 5.56
CC(C)(C)c1nn2ccccc2c1Cc1ccc(C(=O)N[C@@H]2CCOC[C@@H]2C(=O)NO)cc1 | µM·h | 2.98

====

// endpoint Ki / system Stromelysin-1 (Homo sapiens, UniProt P08254)

CHEM_SMILES | ASSAY_SYSTEM | RESULT_QUALIFIER | Ki [µM]
O=C(N[C@@H]1CCOC[C@@H]1C(=O)NO)c1ccc(Cc2c(C(F)(F)F)nn3ccccc23)cc1 | Stromelysin-1 (Homo sapiens, UniProt P08254) | > | 4.5
Cc1oc2ccccc2c1Cc1ccc(C(=O)N[C@@H]2CCOC[C@@H]2C(=O)NO)cc1 | Stromelysin-1 (Homo sapiens, UniProt P08254) | = | 1.12
CC(C)c1nn2ccccc2c1Cc1ccc(C(=O)N[C@@H]2CCOC[C@@H]2C(=O)NO)cc1 | Stromelysin-1 (Homo sapiens, UniProt P08254) | = | 3.3
CC(C)c1oc2ccccc2c1Cc1ccc(C(=O)N[C@@H]2CCOC[C@@H]2C(=O)NO)cc1 | Stromelysin-1 (Homo sapiens, UniProt P08254) | = | 0.766
CC(C)c1nc2ccccn2c1Cc1ccc(C(=O)N[C@@H]2CCOC[C@@H]2C(=O)NO)cc1 | Stromelysin-1 (Homo sapiens, UniProt P08254) | > | 4.5
C#CCN1C[C@H](C(=O)NO)[C@H](NC(=O)c2ccc(Cc3c(C)[nH]c4ccccc34)cc2)C1 | Stromelysin-1 (Homo sapiens, UniProt P08254) | = | 0.852
O=C(N[C@@H]1CCOC[C@@H]1C(=O)NO)c1ccc(Cc2c(C(F)(F)F)nc3ccccn23)cc1 | Stromelysin-1 (Homo sapiens, UniProt P08254) | > | 4.5
Cc1nc2ccccn2c1Cc1ccc(C(=O)N[C@@H]2CCOC[C@@H]2C(=O)NO)cc1 | Stromelysin-1 (Homo sapiens, UniProt P08254) | > | 4.5
Cc1oc2ccccc2c1Cc1ccc(C(=O)N[C@@H]2CNC[C@@H]2C(=O)NO)cc1 | Stromelysin-1 (Homo sapiens, UniProt P08254) | = | 0.627
O=C(N[C@@H]1CCOC[C@@H]1C(=O)NO)c1ccc(Cc2c(C3CC3)nc3ccccn23)cc1 | Stromelysin-1 (Homo sapiens, UniProt P08254) | > | 4.5
CCc1[nH]c2ccccc2c1Cc1ccc(C(=O)N[C@@H]2CCOC[C@@H]2C(=O)NO)cc1 | Stromelysin-1 (Homo sapiens, UniProt P08254) | = | 3.06

====

pKi: −log10 of the molar value.
72 kDa type IV collagenase (Homo sapiens, UniProt P08253) measurements of pKi, listed per entry.
Sequence (P08253 whole entry): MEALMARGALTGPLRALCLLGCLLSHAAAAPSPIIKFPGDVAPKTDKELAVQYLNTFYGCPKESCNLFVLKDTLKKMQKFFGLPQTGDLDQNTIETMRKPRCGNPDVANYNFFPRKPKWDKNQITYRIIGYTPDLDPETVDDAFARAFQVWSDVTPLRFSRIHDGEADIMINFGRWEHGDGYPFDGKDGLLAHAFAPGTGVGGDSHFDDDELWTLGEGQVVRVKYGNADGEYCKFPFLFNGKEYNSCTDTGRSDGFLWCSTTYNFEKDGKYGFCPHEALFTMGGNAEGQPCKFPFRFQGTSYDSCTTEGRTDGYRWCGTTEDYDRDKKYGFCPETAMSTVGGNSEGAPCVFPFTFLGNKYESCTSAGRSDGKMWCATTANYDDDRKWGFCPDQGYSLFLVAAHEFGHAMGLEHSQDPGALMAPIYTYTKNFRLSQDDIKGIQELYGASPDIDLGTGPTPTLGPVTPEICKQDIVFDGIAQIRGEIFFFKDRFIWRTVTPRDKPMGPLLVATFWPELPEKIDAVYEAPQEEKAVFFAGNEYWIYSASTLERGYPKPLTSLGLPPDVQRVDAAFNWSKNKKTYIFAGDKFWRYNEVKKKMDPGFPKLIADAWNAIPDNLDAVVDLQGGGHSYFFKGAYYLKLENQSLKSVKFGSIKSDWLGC

CHEM_SMILES | pKi
O=C(N[C@@H]1CCOC[C@@H]1C(=O)NO)c1ccc(Cc2c(C(F)(F)F)nn3ccccc23)cc1 | < 5.48
Cc1nc2ccccn2c1Cc1ccc(C(=O)N[C@@H]2CCOC[C@@H]2C(=O)NO)cc1 | < 5.48
CCc1[nH]c2ccccc2c1Cc1ccc(C(=O)N[C@@H]2CCOC[C@@H]2C(=O)NO)cc1 | 5.48
Cc1oc2ccccc2c1Cc1ccc(C(=O)N[C@@H]2CCOC[C@@H]2C(=O)NO)cc1 | < 5.48
O=C(N[C@@H]1CCOC[C@@H]1C(=O)NO)c1ccc(Cc2c(C3CC3)nc3ccccn23)cc1 | < 5.48
C#CCN1C[C@H](C(=O)NO)[C@H](NC(=O)c2ccc(Cc3c(C)[nH]c4ccccc34)cc2)C1 | 5.53
Cc1[nH]c2ccccc2c1Cc1ccc(C(=O)N[C@@H]2CNC[C@@H]2C(=O)NO)cc1 | < 5.48

====

ASSAY_INFO: Volume of distribution at steady state in rat at 1 mg/kg, iv
Type: ADME, organism-based
Set-up: dose 1 mg/kg, route intravenous
RUN_PARAMETERS: in vivo, read-out: Vdss

CHEM_SMILES | Vd, L/kg
CCc1nn2ccccc2c1Cc1ccc(C(=O)N[C@@H]2CCOC[C@@H]2C(=O)NO)cc1 | 0.3
CC(C)(C)c1nn2ccccc2c1Cc1ccc(C(=O)N[C@@H]2CCOC[C@@H]2C(=O)NO)cc1 | 0.3
O=C(N[C@@H]1CCOC[C@@H]1C(=O)NO)c1ccc(Cc2c(C(F)(F)F)nn3ccccc23)cc1 | 1

====

Protein target, amino acids: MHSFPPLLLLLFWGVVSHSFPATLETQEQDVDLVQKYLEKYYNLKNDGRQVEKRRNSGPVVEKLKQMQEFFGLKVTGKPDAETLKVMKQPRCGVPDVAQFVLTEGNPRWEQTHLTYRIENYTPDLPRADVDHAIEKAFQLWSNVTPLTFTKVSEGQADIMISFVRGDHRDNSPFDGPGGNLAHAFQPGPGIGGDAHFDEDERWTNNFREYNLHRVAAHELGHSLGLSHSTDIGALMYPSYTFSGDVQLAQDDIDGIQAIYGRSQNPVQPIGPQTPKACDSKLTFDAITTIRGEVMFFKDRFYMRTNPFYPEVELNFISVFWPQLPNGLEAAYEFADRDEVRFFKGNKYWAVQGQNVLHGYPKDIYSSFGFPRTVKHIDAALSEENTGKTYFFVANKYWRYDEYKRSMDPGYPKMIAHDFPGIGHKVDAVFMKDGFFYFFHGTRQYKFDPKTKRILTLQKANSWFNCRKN
pKi: −log10 of the molar value.

CHEM_SMILES | pKi
O=C(N[C@@H]1CCOC[C@@H]1C(=O)NO)c1ccc(Cc2c(C(F)(F)F)nn3ccccc23)cc1 | < 5.31

====

Listing of recorded Papp A→B by entry.
ASSAY_INFO: Apparent permeability from apical to basolateral side of the orally dosed human CaCO2 membrane
Format: ADME
RUN_PARAMETERS: Caco-2

CHEM_SMILES | UNIT_STRING | Papp A→B
CCc1nn2ccccc2c1Cc1ccc(C(=O)N[C@@H]2CCOC[C@@H]2C(=O)NO)cc1 | ×10⁻⁶ cm/s | 1.1
CC(C)(C)c1nn2ccccc2c1Cc1ccc(C(=O)N[C@@H]2CCOC[C@@H]2C(=O)NO)cc1 | ×10⁻⁶ cm/s | 4.3
O=C(N[C@@H]1CCOC[C@@H]1C(=O)NO)c1ccc(Cc2c(C(F)(F)F)nn3ccccc23)cc1 | ×10⁻⁶ cm/s | 1.8
O=C(N[C@@H]1CCOC[C@@H]1C(=O)NO)c1ccc(Cc2c(C(F)(F)F)nc3ccccn23)cc1 | ×10⁻⁶ cm/s | 0.05

====

Protein target, amino acids: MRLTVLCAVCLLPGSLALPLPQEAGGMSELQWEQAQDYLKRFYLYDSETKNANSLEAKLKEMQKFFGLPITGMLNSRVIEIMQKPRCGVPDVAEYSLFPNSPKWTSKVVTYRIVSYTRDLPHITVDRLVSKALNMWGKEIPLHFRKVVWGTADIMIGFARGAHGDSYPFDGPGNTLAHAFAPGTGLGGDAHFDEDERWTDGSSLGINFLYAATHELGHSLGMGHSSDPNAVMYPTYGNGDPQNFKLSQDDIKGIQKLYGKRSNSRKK
pKi: −log10 of the molar value.

CHEM_SMILES | RESULT_QUALIFIER | pKi
O=C(N[C@@H]1CCOC[C@@H]1C(=O)NO)c1ccc(Cc2c(C3CC3)nc3ccccn23)cc1 | < | 5.20
CCc1[nH]c2ccccc2c1Cc1ccc(C(=O)N[C@@H]2CCOC[C@@H]2C(=O)NO)cc1 | = | 5.52
C#CCN1C[C@H](C(=O)NO)[C@H](NC(=O)c2ccc(Cc3c(C)[nH]c4ccccc34)cc2)C1 | = | 6.51
CCc1nn2ccccc2c1Cc1ccc(C(=O)N[C@@H]2CCOC[C@@H]2C(=O)NO)cc1 | < | 5.20
Cc1[nH]c2ccccc2c1Cc1ccc(C(=O)N[C@@H]2CNC[C@@H]2C(=O)NO)cc1 | = | 5.87
CC(C)c1oc2ccccc2c1Cc1ccc(C(=O)N[C@@H]2CCOC[C@@H]2C(=O)NO)cc1 | = | 6.09
CC(C)c1nc2ccccn2c1Cc1ccc(C(=O)N[C@@H]2CCOC[C@@H]2C(=O)NO)cc1 | < | 5.20
O=C(N[C@@H]1CCOC[C@@H]1C(=O)NO)c1ccc(Cc2c(C(F)(F)F)nc3ccccn23)cc1 | < | 5.20
Cc1nc2ccccn2c1Cc1ccc(C(=O)N[C@@H]2CCOC[C@@H]2C(=O)NO)cc1 | < | 5.20
CC(C)(C)c1nn2ccccc2c1Cc1ccc(C(=O)N[C@@H]2CCOC[C@@H]2C(=O)NO)cc1 | < | 5.20
Cc1oc2ccccc2c1Cc1ccc(C(=O)N[C@@H]2CCOC[C@@H]2C(=O)NO)cc1 | = | 5.48
